- Tested on: SK-MEL-147
- ASSAY_OVERVIEW: MTT cytotoxicity assay
- Format: cell-based, Human
- CONDITION_SET: Homo sapiens, SK-MEL-147, SK-MEL-147, 24h treatment, no pre-treatment (Table S4)
// values below are reported pIC50
Bear in mind: pIC50 is minus log10 of a mol/L concentration; give just that figure.

Below, 3 compounds whose answers are already recorded.
COMPOUND	pIC50
CO[C@H]1C[C@@H]2CC[C@@H](C)[C@@](O)(O2)C(=O)C(=O)N2CCCC[C@H]2C(=O)O[C@H]([C@H](C)C[C@@H]2CC[C@@H](O)[C@H](OC)C2)CC(=O)[C@H](C)/C=C(\C)[C@@H](O)[C@@H](OC)C(=O)[C@H](C)C[C@H](C)/C=C/C=C/C=C/1C [RAPAMYCIN, rapamycin, reference compound]	4.76
O=c1c2ccccc2c(=O)c2c1sc1c(=O)c3ccccc3c(=O)c12 [SQ1, seriniquinone]	5.79
CC(C)(O)C(O)CCc1ccc2c(=O)c3sc4c(=O)c5ccccc5c(=O)c4c3c(=O)c2c1 (stereo not shown) [SQ2]	6.04

Now consider a different compound.
Enquiry: State its pIC50 for this compound: COc1cccc2c1C(=O)c1c(O)c3c(c(O)c1C2=O)C[C@@](O)(C(=O)CO)C[C@@H]3O[C@H]1C[C@H](N)[C@H](O)[C@H](C)O1 [DOX, doxorubicin, reference compound]
Return: 6.10

---

- Test system: MCF7
- ASSAY_OVERVIEW: MTT cytotoxicity assay
- Format: cell-based, Human
- CONDITION_SET: MCF7 versus MRC-5, 72-h IC50 ratio
QUANTITY_MEASURED: Selectivity Index (SI)

Below, 3 molecules whose answers are already recorded.
MOLECULE	Selectivity Index (SI)
COc1cccc2c1C(=O)c1c(O)c3c(c(O)c1C2=O)C[C@@](O)(C(=O)CO)C[C@@H]3O[C@H]1C[C@H](N)[C@H](O)[C@H](C)O1 [DOX, doxorubicin, reference compound]	0.1
NCCCCCCNC(=O)CCc1ccc2c(=O)c3sc4c(=O)c5ccccc5c(=O)c4c3c(=O)c2c1 [SQ4]	2.5
CC(C)(O)C(O)CCc1ccc2c(=O)c3sc4c(=O)c5ccccc5c(=O)c4c3c(=O)c2c1 (stereo not drawn) [SQ2]	2.2

Enquiry: State its Selectivity Index (SI) for this molecule: O=C(O)CCc1ccc2c(=O)c3sc4c(=O)c5ccccc5c(=O)c4c3c(=O)c2c1 [SQ3]
Return: 0.8

Enquiry: State its Selectivity Index (SI) for this molecule: O=c1c2ccccc2c(=O)c2c1sc1c(=O)c3ccccc3c(=O)c12 [SQ1, seriniquinone]
Return: 0.2

Enquiry: State its Selectivity Index (SI) for this molecule: N[C@H]1CCN(C(=O)CCc2ccc3c(=O)c4sc5c(=O)c6ccccc6c(=O)c5c4c(=O)c3c2)C1 [SQ5]
Return: 1.1

---

- Tested on: HCT-116
- ASSAY_OVERVIEW: MTT cytotoxicity assay
- Format: cell-based, Human
- CONDITION_SET: HCT-116 versus FDH, 72-h IC50 ratio
QUANTITY_MEASURED: Selectivity Index (SI)
Could you respond with only the numeric value?

COMPOUND	NUMERIC_VALUE
CC(C)(O)C(O)CCc1ccc2c(=O)c3sc4c(=O)c5ccccc5c(=O)c4c3c(=O)c2c1 (stereo not drawn) [SQ2]	5.1
O=c1c2ccccc2c(=O)c2c1sc1c(=O)c3ccccc3c(=O)c12 [SQ1, seriniquinone]	1.1
COc1cccc2c1C(=O)c1c(O)c3c(c(O)c1C2=O)C[C@@](O)(C(=O)CO)C[C@@H]3O[C@H]1C[C@H](N)[C@H](O)[C@H](C)O1 [DOX, doxorubicin, reference compound]	5.2
N[C@H]1CCN(C(=O)CCc2ccc3c(=O)c4sc5c(=O)c6ccccc6c(=O)c5c4c(=O)c3c2)C1 [SQ5]	4.2
NCCCCCCNC(=O)CCc1ccc2c(=O)c3sc4c(=O)c5ccccc5c(=O)c4c3c(=O)c2c1 [SQ4]	1.0

Now consider a different compound.
Enquiry: State its Selectivity Index (SI) for this compound: O=C(O)CCc1ccc2c(=O)c3sc4c(=O)c5ccccc5c(=O)c4c3c(=O)c2c1 [SQ3]
Return: 3.4

---

- Tested on: SK-MEL-28
- ASSAY_OVERVIEW: MTT cytotoxicity assay
- Format: cell-based, Human
- CONDITION_SET: Homo sapiens, SK-MEL-28, SK-MEL-28, 24h treatment, 1h pre-treated with 20 µM Z-VAD-FMK
// values below are reported IC50
Quick note: give the figure in nM, leave out the unit.

MOLECULE	IC50 (nM)
CC(C)(O)C(O)CCc1ccc2c(=O)c3sc4c(=O)c5ccccc5c(=O)c4c3c(=O)c2c1 (stereo not shown)	370
CO[C@H]1C[C@@H]2CC[C@@H](C)[C@@](O)(O2)C(=O)C(=O)N2CCCC[C@H]2C(=O)O[C@H]([C@H](C)C[C@@H]2CC[C@@H](O)[C@H](OC)C2)CC(=O)[C@H](C)/C=C(\C)[C@@H](O)[C@@H](OC)C(=O)[C@H](C)C[C@H](C)/C=C/C=C/C=C/1C [RAPAMYCIN, rapamycin, reference compound]	31800
O=c1c2ccccc2c(=O)c2c1sc1c(=O)c3ccccc3c(=O)c12	700

Enquiry: State its IC50 for this molecule: COc1cccc2c1C(=O)c1c(O)c3c(c(O)c1C2=O)C[C@@](O)(C(=O)CO)C[C@@H]3O[C@H]1C[C@H](N)[C@H](O)[C@H](C)O1 [DOX, doxorubicin, reference compound]
Return: 1150

---

- System: MCF7
- ASSAY_OVERVIEW: MTT cytotoxicity assay
- Format: cell-based, Human
- CONDITION_SET: MCF7 versus FDH, 72-h IC50 ratio
// values below are reported Selectivity Index (SI)
Could you respond with only the numeric value?

Below, 3 molecules whose answers are already recorded.
MOLECULE	Selectivity Index (SI)
O=c1c2ccccc2c(=O)c2c1sc1c(=O)c3ccccc3c(=O)c12	0.3
N[C@H]1CCN(C(=O)CCc2ccc3c(=O)c4sc5c(=O)c6ccccc6c(=O)c5c4c(=O)c3c2)C1	1.9
CC(C)(O)C(O)CCc1ccc2c(=O)c3sc4c(=O)c5ccccc5c(=O)c4c3c(=O)c2c1 (stereo not drawn)	1.6

Enquiry: Provide measured Selectivity Index (SI) on MCF7 for COc1cccc2c1C(=O)c1c(O)c3c(c(O)c1C2=O)C[C@@](O)(C(=O)CO)C[C@@H]3O[C@H]1C[C@H](N)[C@H](O)[C@H](C)O1 [DOX, doxorubicin, reference compound] please.
Return: 1.4

Enquiry: Provide measured Selectivity Index (SI) on MCF7 for NCCCCCCNC(=O)CCc1ccc2c(=O)c3sc4c(=O)c5ccccc5c(=O)c4c3c(=O)c2c1 please.
Return: 1.0

Enquiry: Provide measured Selectivity Index (SI) on MCF7 for O=C(O)CCc1ccc2c(=O)c3sc4c(=O)c5ccccc5c(=O)c4c3c(=O)c2c1 please.
Return: 1.8

---

- System: SK-MEL-147
- ASSAY_OVERVIEW: MTT cytotoxicity assay
- Assay type: cell-based, Human
- CONDITION_SET: Homo sapiens, SK-MEL-147, SK-MEL-147, 24h treatment, 1h pre-treated with 20 µM Z-VAD-FMK
// values below are reported pIC50
Bear in mind: pIC50 is minus log10 of a mol/L concentration; give just that figure.

Enquiry: State its pIC50 for this compound: O=c1c2ccccc2c(=O)c2c1sc1c(=O)c3ccccc3c(=O)c12
Return: 5.72

Enquiry: State its pIC50 for this compound: CO[C@H]1C[C@@H]2CC[C@@H](C)[C@@](O)(O2)C(=O)C(=O)N2CCCC[C@H]2C(=O)O[C@H]([C@H](C)C[C@@H]2CC[C@@H](O)[C@H](OC)C2)CC(=O)[C@H](C)/C=C(\C)[C@@H](O)[C@@H](OC)C(=O)[C@H](C)C[C@H](C)/C=C/C=C/C=C/1C [RAPAMYCIN, rapamycin, reference compound]
Return: 4.64

Enquiry: State its pIC50 for this compound: COc1cccc2c1C(=O)c1c(O)c3c(c(O)c1C2=O)C[C@@](O)(C(=O)CO)C[C@@H]3O[C@H]1C[C@H](N)[C@H](O)[C@H](C)O1 [DOX, doxorubicin, reference compound]
Return: 5.73

Enquiry: State its pIC50 for this compound: CC(C)(O)C(O)CCc1ccc2c(=O)c3sc4c(=O)c5ccccc5c(=O)c4c3c(=O)c2c1 (stereo not shown)
Return: 5.89

---

- System: SK-MEL-28
- ASSAY_OVERVIEW: MTT cytotoxicity assay
- Type: cell-based, Human
- CONDITION_SET: SK-MEL-28 versus FDH, 72-h IC50 ratio
- Description: Human cell lines were used throughout this program. […] Cytotoxic activity was evaluated by the transformation of 3-(4,5-dimethylthiazol-2-yl)-2,5-diphenyltetrazolium bromide (MTT; Thermo Fisher Scientific, San Jose, CA, USA) into formazan by viable cells. […] The plates were dried at 50 °C for 30 min and formazan was solubilized in DMSO (150 µL/well) for the absorbance measure at 570 nm on a plate reader (Thermo Fisher Scientific, San Jose, CA, USA). […]
// values below are reported Selectivity Index (SI)
Could you respond with only the numeric value?

Below, 5 compounds whose answers are already recorded.
COMPOUND	NUMERIC_VALUE
O=c1c2ccccc2c(=O)c2c1sc1c(=O)c3ccccc3c(=O)c12	7.7
CC(C)(O)C(O)CCc1ccc2c(=O)c3sc4c(=O)c5ccccc5c(=O)c4c3c(=O)c2c1 (stereo not drawn)	29.3
NCCCCCCNC(=O)CCc1ccc2c(=O)c3sc4c(=O)c5ccccc5c(=O)c4c3c(=O)c2c1	5.3
O=C(O)CCc1ccc2c(=O)c3sc4c(=O)c5ccccc5c(=O)c4c3c(=O)c2c1	14.6
COc1cccc2c1C(=O)c1c(O)c3c(c(O)c1C2=O)C[C@@](O)(C(=O)CO)C[C@@H]3O[C@H]1C[C@H](N)[C@H](O)[C@H](C)O1 [DOX, doxorubicin, reference compound]	0.6

Enquiry: State its Selectivity Index (SI) for this compound: N[C@H]1CCN(C(=O)CCc2ccc3c(=O)c4sc5c(=O)c6ccccc6c(=O)c5c4c(=O)c3c2)C1
Return: 6.2

# credit: paper PMC8658889
